Organism: Rattus norvegicus
Test: Open TG-GATES - Regimen: Daily Repeat
Type: toxicity, organism-based, Sprague-Dawley
Design: regimen Daily Repeat, gender Male, age 6 weeks
Settings: in vivo, po, 0 mg/kg, […], tissue Plasma, route gavage, dose level Control, time 14 day
ALT under 40 IU/L gets Yes, anything at or over 40 IU/L gets No.

1) O=C(N[C@H](CO)[C@H](O)c1ccc([N+](=O)[O-])cc1)C(Cl)Cl: Yes
2) CCC(C)(C)C(=O)O[C@H]1C[C@@H](C)C=C2C=C[C@H](C)[C@H](CC[C@@H]3C[C@@H](O)CC(=O)O3)[C@H]21: Yes
3) CC(C)C(=O)Nc1ccc([N+](=O)[O-])c(C(F)(F)F)c1 [FLUTAMIDE]: Yes
4) Nc1nc(N)c2nc(-c3ccccc3)c(N)nc2n1: Yes
5) Oc1ncnc2[nH]ncc12: Yes
6) C[C@](N)(Cc1ccc(O)c(O)c1)C(=O)O: No
7) C[C@]12CCC(=O)C=C1CC[C@@H]1[C@@H]2CC[C@@]2(C)[C@H]1CC[C@]2(C)O: No
8) CC(=N)S [THIOACETAMIDE]: Yes
9) C#C[C@]1(O)CC[C@H]2[C@@H]3CCc4cc(O)ccc4[C@H]3CC[C@@]21C: No
10) CCSCC[C@H](N)C(=O)O: Yes
11) CCc1oc2ccccc2c1C(=O)c1cc(I)c(O)c(I)c1: Yes
12) CC(C)(S)[C@@H](N)C(=O)O: No
13) CCN1CCCC1CNC(=O)c1cc(S(N)(=O)=O)ccc1OC (stereo not given) [SULPIRIDE]: Yes
14) CN1C(=O)OC(C)(C)C1=O: No

Values compiled from ChEMBL document CHEMBL3885861.
